The measurements presented in this section are drawn from patent US20250382386A1.

Target: human ALK-1 on cells (CHO-K1-hALK-1 cells; HUVEC; A172) (human, UniProt P37023 22-503)
Experiment: cell-based or functional assay
value.type: IC50 of blocking BMP9-induced Smad1 phosphorylation in HUVEC cells (ELISA kit) (nM)
Give the number; nM is assumed, so skip it.

# input Give the measured IC50 of blocking BMP9-induced Smad1 phosphorylation in HUVEC cells (ELISA kit) for anti-ALK-1 antibody #27 (antibody, human IgG1, kappa, L234A L235A, V domains shown) VH: QVQLQESGPGLVKPSQTLSLTCTVSGGSISSGEYYWNWIRQHPGKGLEWIGYIYYSGSTYYNPSLKSRVTISVDTSKNQFSLKLSSVTAADTAVYYCARESVAGFDYWGQGTLVTVSS VL: EIVLTQSPGTLSLSPGERATLSCRASQSVSSSYLAWYQQKPGQAPRLLIYGTSSRATGIPDRFSGSGSGTDFTLTISRLEPEDFAVYYCQGYGSWPITFGQGTRLEIKR
# output 6.3

# input Give the measured IC50 of blocking BMP9-induced Smad1 phosphorylation in HUVEC cells (ELISA kit) for anti-ALK-1 antibody #19 (antibody, human IgG1, kappa, L234A L235A, V domains shown) VH: QVQLQESGPGLVKPSQTLSLTCTVSGGSISSGEYYWNWIRQHPGKGLEWIGYIYYSGSTYYNPSLKSRVTISVDTSKNQFSLKLSSVTAADTAVYYCARESVAGFDYWGQGTLVTVSS VL: EIVLTQSPGTLSLSPGERATLSCRASQSVSSSYLAWYQQKPGQAPRLLIYGTSSRATGIPDRFSGSGSGTDFTLTISRLEPEDFAVYYCQFYGSWPITFGQGTRLEIKR
# output 5.2

# input Give the measured IC50 of blocking BMP9-induced Smad1 phosphorylation in HUVEC cells (ELISA kit) for anti-ALK-1 antibody #14 (antibody, human IgG1, kappa, L234A L235A, V domains shown) VH: QVQLQESGPGLVKPSQTLSLTCTVSGGSISSGEYYWNWIRQHPGKGLEWIGYIYYSGSTYYNPSLKSRVTISVDTSKNQFSLKLSSVTAADTAVYYCARESVAGFDYWGQGTLVTVSS VL: EIVLTQSPGTLSLSPGERATLSCRASQSVSSSYLAWYQQKPGQAPRLLIYGTSSRATGIPDRFSGSGSGTDFTLTISRLEPEDFAVYYCQMYGSWPITFGQGTRLEIKR
# output 11.1

# input Give the measured IC50 of blocking BMP9-induced Smad1 phosphorylation in HUVEC cells (ELISA kit) for anti-ALK-1 antibody #12 (antibody, human IgG1, kappa, L234A L235A, V domains shown) VH: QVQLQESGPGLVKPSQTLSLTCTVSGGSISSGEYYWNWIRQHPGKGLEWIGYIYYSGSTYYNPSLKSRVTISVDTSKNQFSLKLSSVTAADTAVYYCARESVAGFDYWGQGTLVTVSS VL: EIVLTQSPGTLSLSPGERATLSCRASQSVSSSYLAWYQQKPGQAPRLLIYGTSSRATGIPDRFSGSGSGTDFTLTISRLEPEDFAVYYCQIYGSIPITFGQGTRLEIKR
# output 11.2
